The reported numbers originate from patent US8017612B2.

- targetEntity: HCV polymerase (NS5B) type 1a (Hepatitis C virus genotype 1a, UniProt P26664)
- Construct: made in house; host or cells: Escherichia coli (by the 'similar method' of the 1b enzyme)
- testDescription: Assay of enzyme (HCV polymerase) inhibitory activity, type 1a enzyme
- Type: biochemical, HCV type 1a (cloned from the blood of patients)
- conditions: HCV polymerase inhibitory activity (IC50), 1a, type 1a enzyme 1.5 μg/ml, 25° C., 60 min
pIC50: −log10 of the molar value.
observedProperty: pIC50

- molecule: "CC(=O)N1CCN(S(=O)(=O)c2ccc(-c3ccc(Cl)cc3)s2)C(C(=O)NCc2ccc(C(F)(F)F)cc2)C1 (stereo not shown)"
  targetEntity: "HCV polymerase (NS5B) type 1a (Hepatitis C virus genotype 1a, UniProt P26664)"
  pIC50: "< 6.00"
- molecule: "Cc1nc(N2CCN(S(=O)(=O)c3ccc(C(F)(F)F)cc3)[C@@H](C(=O)NCc3ccc(C(C)C)cc3)C2)ncc1C(=O)O"
  targetEntity: "HCV polymerase (NS5B) type 1a (Hepatitis C virus genotype 1a, UniProt P26664)"
  pIC50: "< 6.00"
- molecule: "CC(=O)N1CCN(S(=O)(=O)c2ccc(C(C)C)cc2)C(C(=O)NCc2ccccn2)C1 (stereo not shown)"
  targetEntity: "HCV polymerase (NS5B) type 1a (Hepatitis C virus genotype 1a, UniProt P26664)"
  pIC50: "< 6.00"

Now examine the next entry.
*Q* // lookup pIC50 | system=HCV polymerase (NS5B) type 1a (Hepatitis C virus genotype 1a, UniProt P26664) | key= CC(C)c1ccc(CNC(=O)[C@H]2CN(c3nc(CCC(=O)O)cs3)CCN2S(=O)(=O)c2ccc(OC(F)(F)F)cc2)cc1
*A* 6.00 to 7.00

----------
- targetEntity: HCV polymerase (NS5B) type 1b (Hepatitis C virus genotype 1b, UniProt P26663)
- Construct: a region encoding NS5B (J Virol 1991 March, 65(3), 1105-13, 544 amino acids after deletion of 47 amino acids on the C-terminal); 6xHis (C); made in house; host or cells: Escherichia coli
- testDescription: Assay of enzyme (HCV polymerase) inhibitory activity, type 1b enzyme
- Assay type: biochemical, HCV BK strain (type 1b)
- conditions: HCV polymerase inhibitory activity IC50, 1b, type 1b enzyme
Overview of recorded IC50 for various compounds

Worked examples follow.
- entrySmiles: "O=C(NCc1ccc(OC(F)F)cc1)[C@H]1CN(c2nc3ncncc3s2)CCN1S(=O)(=O)c1ccc(C(F)(F)F)cc1"
  IC50: "< 100 nM"
- entrySmiles: "CCC(C)(C)c1ccc(CNC(=O)[C@H]2CN(c3nc4cn[nH]c(=O)c4s3)CCN2S(=O)(=O)c2ccc(OC(F)(F)F)cc2)cc1"
  IC50: "< 100 nM"
- entrySmiles: "CCC(F)(F)c1ccc(CNC(=O)[C@H]2CN(C(=O)NCC(=O)O)CCN2S(=O)(=O)c2ccc(OC(F)(F)F)cc2)cc1"
  IC50: "> 1000 nM"
- entrySmiles: "Cc1ncc2sc(N3CCN(S(=O)(=O)c4ccc(C(F)(F)F)cc4)[C@@H](C(=O)NCc4ccc(OC(F)(F)F)cc4)C3)nc2n1"
  IC50: "< 100 nM"
- entrySmiles: "CC(=O)N1CCN(S(=O)(=O)c2ccc(OC(F)(F)F)cc2)[C@@H](C(=O)NCc2ccc(CCCO)cc2)C1"
  IC50: "> 1000 nM"

Now examine the next entry.
*Q* Requested read-out: IC50. Entry: O=C(NCc1ccc(OC(F)(F)F)cc1)[C@H]1CN(c2nc3cn[nH]c(=O)c3s2)CCN1S(=O)(=O)c1ccc(Cl)cc1
*A* < 100 nM
